Tested on: Artemia salina nauplii
Assay: Brine shrimp lethality test
Settings: 48 h exposure, nauplii, 0.05–5.0% (w/v) tested
recordedEndpoint: LC50 (%)
Express your answer in %, writing the number without its unit.

query: Item CC(O)CO (stereo not shown) has what recorded LC50?
result: 1.64

query: Item CCN(CC)C(=O)c1cccnc1 [DENA, N,N-diethylnicotinamide] has what recorded LC50?
result: 0.05

query: Item CN(C)C(N)=O has what recorded LC50?
result: 0.08

query: Item CN(C)C=O [DMF, dimethylformamide] has what recorded LC50?
result: 1.06

query: Item CN(C)C(=O)c1ccccc1 [DMBA, N,N-dimethylbenzamide] has what recorded LC50?
result: 0.09

query: Item O=S(=O)([O-])c1ccccc1.[Na+] [SBS, sodium benzenesulfonate] has what recorded LC50?
result: 0.21

query: Item NC(N)=O has what recorded LC50?
result: 0.74

====

Tested on: Artemia salina nauplii
Assay: Brine shrimp lethality test
Details: 24 and 48 h, 0.05–5% (w/v)
recordedEndpoint: toxicity in the lethality test, in words

Previously resolved entries follow.
compound: CCN(CC)C(=O)c1cccnc1 [DENA, N,N-diethylnicotinamide]
toxicity in the lethality test, in words: highly toxic
//
compound: NC(N)=O
toxicity in the lethality test, in words: moderate toxicity
//
compound: CN(C)C(N)=O
toxicity in the lethality test, in words: moderate toxicity
//
compound: OCC(O)CO
toxicity in the lethality test, in words: very low toxicity
//
compound: O=S(=O)([O-])c1ccccc1.[Na+] [SBS, sodium benzenesulfonate]
toxicity in the lethality test, in words: moderate toxicity
//
compound: Cc1ccc(S(=O)(=O)O)cc1.[Na] [PTS, sodium p-toluenesulfonate]
toxicity in the lethality test, in words: highly toxic
//
compound: CN(C)C=O [DMF, dimethylformamide]
toxicity in the lethality test, in words: moderate toxicity
//
compound: CN(C)C(=O)c1ccccc1 [DMBA, N,N-dimethylbenzamide]
toxicity in the lethality test, in words: highly toxic

# next compound below
query: Item CC(O)CO (stereo not drawn) has what recorded toxicity in the lethality test, in words?
result: very low toxicity

====

Would you mind telling me the reported LC50 of each entry?
System: Artemia salina nauplii
Assay: Brine shrimp lethality test
Settings: 24 h exposure, nauplii, 0.05–5.0% (w/v) tested
Express your answer in %, writing the number without its unit.

query: Param readout = LC50; param system = Artemia salina nauplii; param query = CN(C)C(N)=O ; response: value
result: 0.94

query: Param readout = LC50; param system = Artemia salina nauplii; param query = CN(C)C(=O)c1ccccc1 [DMBA, N,N-dimethylbenzamide] ; response: value
result: 0.13

query: Param readout = LC50; param system = Artemia salina nauplii; param query = CCN(CC)C(=O)c1cccnc1 [DENA, N,N-diethylnicotinamide] ; response: value
result: 0.22

query: Param readout = LC50; param system = Artemia salina nauplii; param query = O=S(=O)([O-])c1ccccc1.[Na+] [SBS, sodium benzenesulfonate] ; response: value
result: 0.93

query: Param readout = LC50; param system = Artemia salina nauplii; param query = CN(C)C=O [DMF, dimethylformamide] ; response: value
result: 1.24

query: Param readout = LC50; param system = Artemia salina nauplii; param query = NC(N)=O ; response: value
result: 1.11
